Can you tell me amyloid nucleation score for the items I'm about to list?
Assay: amyloid nucleation score (Sup35N fusion, yeast selection) (log enrichment); library NNK2; higher = more nucleation; inactive = no reads after selection;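 further: zero at mode of non-aggregating sequences after 7 days selection at 30°C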
Reply briefly: the number, and no unit.

Need amyloid nucleation score, item YSLNWVQWEWELVCKWQGSL
0.143

Now the same for AALELSRNKFSVRIICVLLW
-0.238

Consider next the sequence FYFKRQNNNDQVIVTHTT in the same way.
-0.103

Let us now turn to TMHCSSLPQTSLVGTNHNAD
-0.327

Do the same for NVFMRYTKFYMCLELGNCWG please
-0.331

* * *

Assay: amyloid nucleation score (Sup35N fusion, yeast selection) (log enrichment); library NNK3; higher = more nucleation; inactive = no reads after selection
Measurement Kind: amyloid nucleation score

Sample records with amyloid nucleation score:
{"Seq Text": "IINFIVCMMSVQNMCCALFG", "amyloid nucleation score": 1.39}
{"Seq Text": "FGEYKMISVEYLVLEIVRYM", "amyloid nucleation score": "inactive"}
{"Seq Text": "ECSVSMCEKGITYRSVVERG", "amyloid nucleation score": "inactive"}
{"Seq Text": "SMVVERGNQRLRSTYYADCV", "amyloid nucleation score": "inactive"}
{"Seq Text": "YSLCACSYYVNVVNNRVVSV", "amyloid nucleation score": 1.39}

Can you look up the measured amyloid nucleation score of YGFRRTACMCL for me?
inactive

What do you have for GLGYWAKGSHLWVLLRLLNH ?
inactive

Now try CSTYSRLRYIAYCWVVRP .
inactive

How about LNLSLVNCLMAVTCSLFL ?
1.44

Request: IMSVRIGSLGVMSHWSLYSY
inactive

* * *

Experiment: amyloid nucleation score (Sup35N fusion, yeast selection) (log enrichment); library NNK1; higher = more nucleation; inactive = no reads after selection

{"Seq Text": "VFMMSDTC", "amyloid nucleation score": "inactive"}
{"Seq Text": "SDIMGTVLSYFGINLVYAPC", "amyloid nucleation score": "inactive"}
{"Seq Text": "FRFAMRYFRGIYELRNENRR", "amyloid nucleation score": "inactive"}

* * *

Assay: amyloid nucleation score (Sup35N fusion, yeast selection) (log enrichment); library NNK2; higher = more nucleation; inactive = no reads after selection
Measurement Kind: amyloid nucleation score

{"Substance": "WLSTVVL", "Value Observed": "inactive"}
{"Substance": "HVLTAGNHVGSVMNWHANEM", "Value Observed": "inactive"}
{"Substance": "LSGFKYWLRWL", "Value Observed": "inactive"}

* * *

Assay: amyloid nucleation score (Sup35N fusion, yeast selection) (log enrichment); library NNK3; higher = more nucleation; inactive = no reads after selection
Measurement Kind: amyloid nucleation score

{"Substance": "VCNMRVYI", "Measurement Kind": "amyloid nucleation score", "Value Observed": "inactive"}
{"Substance": "ETLWVKVYLTYLNMTRMSGY", "Measurement Kind": "amyloid nucleation score", "Value Observed": "inactive"}
{"Substance": "AILEVLT", "Measurement Kind": "amyloid nucleation score", "Value Observed": 0.671}
{"Substance": "FRWHLCRFCWKRIFASTMLA", "Measurement Kind": "amyloid nucleation score", "Value Observed": "inactive"}

What does the data say about its amyloid nucleation score? Entry: YTVLWDLVFWGTPICYVIDN
inactive

Try this substance next: IGPVVGGYRYMCPASDHK
inactive

* * *

Assay: amyloid nucleation score (Sup35N fusion, yeast selection) (log enrichment); library NNK1; higher = more nucleation; inactive = no reads after selection
For each record, write down the corresponding amyloid nucleation score.
Returns: the value as a bare number; no unit string appended.

I would be grateful if you could share the reported amyloid nucleation score for FIVERDTHQGMHFGLMLING .
0.286

Record: VTARTRSDS
0.55

Next up: LTCKMDIDKVWVGDMLYS
-0.677

Try LKISWR next.
0.724

Similarly, FASILVFQNGSIATCAINWV ?
0.694

And the next one, NLGAMWLNVVPVYLKWVAL ?
-0.095

Please answer likewise for GSRVVQRYVAVHACVHERVT
0.589

Next substance: ERLGMWDSRMVQLWDSFCIE
0.363

Then what about the substance TLNSPECDPNLSLML ?
-0.555

Same read-out for ITNFMGGIRVYRCDASMKGG ?
0.395

Moving on to the next substance: AWRIIPGILAFTFEEM
-0.428

Please do the same for STFIDGSGIVALHCNSGCLA as well.
0.86

Same read-out for CIVVYLSLY ?
3.32

Similarly, EFKLDNFQIVGYLLLTRRLI ?
0.222

Now the same for LCMMMVQPLQGLSSAVTWSQ
-0.54

Also VWELGPFCDLEVRYV , if possible.
0.531

Repeat for the following substance: PSFSDLSHALGSSLESWGYR
0.021

Now the substance GFVGYNCLCFCKSVA
-1.05

Query PFTYYFEVQLILRKT next
0.773

Same lookup for TMFHLWNFGCVALVR , please.
-0.104

Do the same for ISAMSVW please
-0.031

Same question, LSHVKTTRLMPLET this time
-1.11

Entry NRLIGGLFSCVCTADQSTHS please
8.42

Likewise for WLLISSALIIYVRHGLIRSM ?
-0.455

Follow-up item: VIVFCCSEDNRRGQLKV
-1.49

Now the same for FKSVFVRTIHATYIVSWAN
-0.413

Also, WHRGYGMLTRLRWRPDTVLF please.
-0.052

Lookup LLNFCIWAKCWYRLVCNC
0.209

Note, next up: LWYSFNVHTVHYYQCSDIYS
-0.142

// repeat for TYFSISQLLGFFQSVGPYVF and report
0.108

Could you do the same for ASGFESCDTEVVGFRGVCYA , please?
1.42

Similarly, RLQDSLPTSEVTEIPPPAN ?
-0.405

Also need CAQRPAVRSF , thanks.
-0.075

Moving on to LCSMKMIYQKC
0.177

Please do the same for TMTFPKVLWPCGLVRNFCST as well.
-0.294

Proceed to FNYNLCMFMHSVELFLIKIE
8.16

What do you get for EVFNEKSVSLRGWNIHGNFC ?
0.03

Next entry: CIFSRNQGLIHRLEDNGH
0.685

Please answer likewise for RKRNKYILYYRCNRWFQLYC
-0.323

// query: VGVVGDYDLQIS
-1.2

Same for RQYDMDLVWKRSQNARKRS
0.033

Do the same for LCCKVLLALSAPGQFSVHNA please
-0.621

Another: FDLRLRWRVA
0.295

Same question, CLNVCSLFRSTYRFKRVREC this time
0.434

Now the substance RTSLNLNIRNTWAKWLGAEF
4.29

Now consider GFTDYNRVRYKVLTVVFDYG and answer again.
-1.51

Repeat with FFGHAEDFLYMIRVHAGNNL
-0.379

Then what about the substance DAFAGF ?
0.054

Same read-out for RCIVWC ?
0.207

Follow-up item: FEDEPGVSFWNSGGFK
-1.07

// next record PSRATYCRGSMIHLIFDWIT
0.955

* * *

Give measured amyloid nucleation score for each item. Keep answers brief.
Test: amyloid nucleation score (Sup35N fusion, yeast selection) (log enrichment); library NNK2; higher = more nucleation; inactive = no reads after selection
Just the number.

Fill in the blank: the reported amyloid nucleation score of WQRLKLSEKLVGSAVPLKAG is ____.
4.44

YPVTYQLCILICTGYADKWR ?
-1.26

Then what about the substance AFEFIPSKPRW ?
0.667

Please give the result for LRMSVVQLSVRESLLDNHDY too.
1.78

Follow-up entry: RNGLRTLEQRRSKSVWEMSW
0.969

Check QYNKCSMALVFCYCS too.
8.26

Try TLMGNVRTCPPAGRRATTAS next.
0.966

Then this substance: VMTARHVLWSNLRVRPRGHD
0.867

Another substance to check: LVYFKRRLPTRLIANRRMNG
-0.845

Same question for TVYEMGASMLVKILHWKVLN please.
-0.801

And the next one, ALQDMTI ?
-0.176

How about VLSLLMPVVRIVWKFN ?
-0.084

Check SHGPLR too.
5.56

Also, AVGNMDVQEGFTTSRADRGL please.
0.913

Also IFSNLRSFE , if possible.
0.657

Try the substance YNKGNACISGYYGCSLA
7.41

Can you check CVSWRYFMFPCLVSLEMSSS next?
3.71

Also need GAYNNFIMCKSFVFSFQSGD , thanks.
6.33

Okay, and SSLVVMMGILMEVTVAGLGV ?
0.241

Now try YFYITTCSGMSTDVFMNLLT .
-0.422

What about this substance? VSLIFQIRLRHRLTGAQMKR
0.762

Item: LCIIWVVRFYALWWSEPMGW
1.14

Next up: WLVSSVSCQPMSQSSFVGGL
5.5

And then NVLDVGVGRTFVFK , what is it?
-0.291

Another substance to check: LMYVCSLNNPLFMYANLL
5.54

And what about the substance KIDSICRYRGPINQLNINPF ?
0.417

Moving on to PVMDNLFSKAFVG
-0.741

For IFLSSDLTDGVYSSLYDPID then?
0.042

Lookup KDVTVNIRWTLIQLLYHTNF
4.08

Then HPMQLLTSAQIKG ?
0.863

# iterate: GWGRLTY
0.21

Thanks! And WNVFKLSGSSYV ?
-0.483

// next record KGFNKY
-0.911

Also LVGWSLHSITFPEWRGHNPK , if possible.
-0.991

# iterate: YLGLDARLI
0.661

Do the same for AFMSYTSSSRYPVCYLSKFH please
-0.74

Please answer likewise for DYAFRVYSGIPLKLSNS
-0.373

Proceed to EAWRNLYFGLSRRHRRYGSL
1.49

Repeat for the following substance: DCSSVISKSSLIAVLCFHTN
5.14

Now consider RIQINWDEFGQDRELRVSGR .
0.75

DKFISLFKRGAHKDVQ , same question.
-0.42

Moving on to LYVVVRLISCYYGAFPSWNR
-0.316

Consider next the substance HVIVMYGSIY in the same way.
3.19

// repeat for GERRTSLVVKYGRVAGYTYN and report
-0.273

Repeat with LFDVADIDA
0.736

And RKCAPMDASSRHADSYPSQS ?
1.24

Now the same for MLLFSLWGNYAGQVPWDRVG
-0.513

And what about the substance VLHRLRSLLERFLFYVDLIS ?
0.355

And the next one, ITFMVLM ?
6.6

And what about the substance FFTLVVTVLPRRFYRFNYR ?
0.043

Now this one: CVGDAALWWVVFIYGEHSRV
0.022

WLDSQWNLYLDLYHLYRSCR , same question.
3.22

Proceed to VEREDVHKGRRFAQACNNLV
0.495

Lookup SNFVTVSGTPPHIILMCKDW
4.71

Then DVDSCW ?
0.554

Would you mind doing VYKMIVSRVHC as well?
-1.17

Try the substance VNVDWCLLSVLVFNLETNPR
6.7
